Sourced from PubChem BioAssay (NCI)

- Tested on: NCI-H322M lung
- TEST PROTOCOL: NCI-60 one-dose screen, 48 h
- SETTINGS: 10 µM unless noted
This is part of a sample that, as a whole, favours compounds with a hit. Of some 83,000 tested, about 20% had one in any assay. Calls of active or inactive are those of the source. How the source made its calls: active means growth percent below 10; inactive means the rest.
// allowed return values: active, inactive

{"columns": ["COMPOUND", "ASSIGNED LABEL"],
 "data": [
  ["COc1cc(CNC(=O)CCCCC[P+](c2ccccc2)(c2ccccc2)c2ccccc2)c(OC)c2c1OCO2", "inactive"],
  ["COc1ccc2nc(N=Nc3c(O)ccc4ccccc34)sc2c1", "inactive"],
  ["CC(C)(C)CC(C)(C)Nc1c(-c2ccc3c(c2)OCO3)nc2cnccn12", "inactive"],
  ["COc1ccc(/C=C/C(=O)c2ccc(Nc3ncnc4ccccc34)cc2)cc1OC", "inactive"],
  ["CCOC(=O)c1ccc(Nc2ccnc(SCC(=O)c3ccc(C#N)cc3)n2)cc1", "inactive"],
  ["Nc1nnc(C(=O)c2cnc3n(c2=O)CCCCC3)s1", "inactive"],
  ["COc1ccc(C(=O)c2cc3c(N)c(C(=O)Nc4cccc(OC)c4)sc3nc2C)cc1", "inactive"],
  ["CCCCCCc1nc2nc(Cl)c(Cl)nc2[nH]1", "inactive"]
]}

Request: What did the test return for `Cn1c(COC(=O)NCCn2ccnc2)nc2c(N3CCOCC3)nc(-c3ccccc3)nc21` ?
Response: inactive

====

- Test system: KM12 colon
- TEST PROTOCOL: NCI-60 one-dose screen, 48 h (100 = growth as untreated, 0 = no growth, -100 = all killed)
- SETTINGS: 10 µM unless noted
About 83,000 compounds went through this panel and 20% of them were active in at least one assay; those are over-represented in the sample as a whole.
Catalogue of growth values
Numeric only. Scale: %

Example entries and their recorded answers appear below.
{"columns": ["ENTRY SMILES", "QUANTITY UNIT", "growth"],
 "data": [
  ["COc1ccc(C(=O)c2cc3c(N)c(C(=O)Nc4cccc(Cl)c4C)sc3nc2C)cc1", "%", 10.6],
  ["S=c1[nH]cccc1-c1nnc2n1Nc1nc3ccc(Cl)cc3cc1CS2", "%", 104],
  ["COc1cc2nc(-c3ccc(C#N)cc3)[nH]c(=O)c2cc1OC", "%", 111],
  ["O=C(Nc1nc(-c2ccc(Br)cc2)cs1)c1cc(-c2ccc(Br)cc2)nc2ccc(Cl)cc12", "%", 83.3]
]}

Pending molecule:
Request: Quick one: give measured growth for `O=S(=O)(NCCCNc1nccc(-c2c(-c3cccc(O)c3)nc3occn23)n1)c1ccc(Br)cc1`
Response: 94.4

====

Catalogue of growth values
- Tested on: HS 578T breast
- TEST PROTOCOL: NCI-60 one-dose screen, 48 h (100 = growth as untreated, 0 = no growth, -100 = all killed)
- SETTINGS: 10 µM unless noted
- Experimental: Growth inhibition of the HS 578T human tumor cell line is measured as a screen for anti-cancer activity. Cells are grown in 96 well plates and exposed to the test compound for 48 hours. Compounds are tested at a single concentration, which is 10^-5 M for most compounds. The reported endpoint is percent growth (GI% or GIPRCNT), where numbers from 0 - 100% represent growth inhibition, and numbers from -100% - 0 represent cell death. For example, a value of 40 represents 60% growth inhibition. […]
This is part of a sample that, as a whole, favours compounds with a hit. Of some 83,000 tested, about 20% had one in any assay. Activity calls are given as the source filed them. Rule for the calls: active = growth percent below 10; inactive = the rest.

Example entries and their recorded answers appear below.
{"columns": ["ENTRY SMILES", "growth"],
 "data": [
  ["O=c1nc2n(nc1/C=C/c1ccco1)CC(c1ccc(Cl)cc1)=NN2", "116% (inactive)"],
  ["O=C(Cc1ccc(/C=C/C(=O)c2ncc[nH]2)cc1)Nc1ccc(C(F)(F)F)cc1", "36.1% (inactive)"],
  ["FC(F)(F)Oc1cccc(-c2cc(NCCCCCCNc3cc(-c4cccc(OC(F)(F)F)c4)nc4ccc(N5CCCC5)cc34)c3cc(N4CCCC4)ccc3n2)c1", "-4.44% (active)"]
]}

Pending compound:
Request: Quick one: give measured growth for `CC1(C)[C@H](O)CC[C@]2(C)[C@@H]1CC[C@@]13C[C@@H](CC[C@H]12)[C@@](O)(CO)C3`
Response: 97.9% (inactive)

====

- Test system: A498 renal
- TEST PROTOCOL: NCI-60 one-dose screen, 48 h
- SETTINGS: 10 µM unless noted
- Description: Growth inhibition of the A498 human tumor cell line is measured as a screen for anti-cancer activity. Cells are grown in 96 well plates and exposed to the test compound for 48 hours. Compounds are tested at a single concentration, which is 10^-5 M for most compounds. The reported endpoint is percent growth (GI% or GIPRCNT), where numbers from 0 - 100% represent growth inhibition, and numbers from -100% - 0 represent cell death. For example, a value of 40 represents 60% growth inhibition. […]
About 83,000 compounds went through this panel and 20% of them were active in at least one assay; those are over-represented in the sample as a whole. Activity calls are given as the source filed them. How the source made its calls: active means growth percent below 10; inactive means the rest.
// allowed return values: yes (1) (active), no (0) (inactive)

Some solved cases for reference:
{"columns": ["MOLECULE", "MEASUREMENT TARGET", "ASSIGNED LABEL"],
 "data": [
  ["O=C(O)CCCCCCCCCCCCCCC(=O)O", "A498 renal", "no (0)"],
  ["Cn1ncc2c(Nc3ccccc3Cl)nc(Cl)nc21", "A498 renal", "no (0)"],
  ["C=C(C)[C@@H]1CC[C@]2(C(=O)O)CC[C@]3(C)[C@H](CC[C@@H]4[C@@]5(C)C[C@@H](CC#Cc6ccc(Br)cc6)C(=O)C(C)(C)[C@@H]5CC[C@]43C)[C@@H]12", "A498 renal", "yes (1)"],
  ["NC(=O)c1ncn(C2OC(CO)C(O)C2O)n1 (stereo unspecified)", "A498 renal", "no (0)"],
  ["Fc1ccccc1CSc1ncnc2nc[nH]c12", "A498 renal", "no (0)"]
]}

Request: What did the test return for `COc1ccc(NS(=O)(=O)c2ccc(C)cc2)c([N+](=O)[O-])c1` ?
Response: no (0)

Request: What did the test return for Cc1ccc(C2CC(c3cccc(Nc4ccncc4)c3)=NN2c2ccc(Cl)cc2)cc1 (stereo unspecified) ?
Response: yes (1)

====

- Test system: SNB-75 CNS
- TEST PROTOCOL: NCI-60 one-dose screen, 48 h (100 = growth as untreated, 0 = no growth, -100 = all killed)
- SETTINGS: 10 µM unless noted
- Protocol: Growth inhibition of the SNB-75 human tumor cell line is measured as a screen for anti-cancer activity. Cells are grown in 96 well plates and exposed to the test compound for 48 hours. Compounds are tested at a single concentration, which is 10^-5 M for most compounds. The reported endpoint is percent growth (GI% or GIPRCNT), where numbers from 0 - 100% represent growth inhibition, and numbers from -100% - 0 represent cell death. For example, a value of 40 represents 60% growth inhibition. […]
This is part of a sample that, as a whole, favours compounds with a hit. Of some 83,000 tested, about 20% had one in any assay.
Catalogue of growth values
Numeric only. Scale: %

Example entries and their recorded answers appear below.
{"columns": ["COMPOUND", "OBSERVED RESULT"],
 "data": [
  ["COc1ccc(/C=C(/c2ccccc2)[N+](=O)[O-])cc1", -85.5],
  ["CCNC(=O)c1[nH]cc(-c2ccc(OC)cc2)c1-c1cc(OC)cc(OC)c1", 67],
  ["COc1ccc(Cn2nc(-c3cc(OC)c(OC)c(OC)c3)c3c2CCc2cnoc2-3)cc1OC", 37.8],
  ["Cc1nccc2c3ccc(OCc4cn(-c5ccc(Cl)cc5)nn4)cc3n(CCCc3ccccc3)c12", -45.1],
  ["COc1cc(C2NC(c3cc(OC)c(OC)c(OC)c3)C(C#N)(C#N)C2(C#N)C#N)cc(OC)c1OC (stereo not given)", 80.7],
  ["O=C(CNCCO)Nc1ccc2ncnc(Nc3ccc(OCc4cccc(F)c4)c(Cl)c3)c2c1", 88.2],
  ["CC(C)Cc1ccc(C(C)C(=O)NCc2ccc(Cn3c(=O)sn(-c4ccc(Cl)cc4)c3=O)cc2)cc1 (stereo not given)", 79.4],
  ["C=C1C(=O)O[C@H]2[C@H]1CC/C(CNC(=O)/C=C/c1ccccc1F)=C\\CC[C@@]1(C)O[C@@H]21", 94.1]
]}

Request: Quick one: give measured growth for `NC(=S)N/N=C/c1ccc(OC(=O)COc2cc(Cl)c(Cl)cc2Cl)cn1`
Response: 98.8

Request: Quick one: give measured growth for `CCCCc1ccc(Nc2nnc(SCC(=O)NC(=O)NCC)s2)cc1`
Response: 83

Request: Quick one: give measured growth for `C[C@]12C[C@H]1CC[C@]1(C)[C@@H]2CC[C@@]23C[C@H](CC[C@H]21)[C@@](O)(CO)C3`
Response: 105

Request: Quick one: give measured growth for COc1ccc(C2=NN(C(C)=O)C(c3cn(Cc4ccc(Cl)cc4)c4ccccc34)C2)cc1 (stereo not given)
Response: 79.2

Request: Quick one: give measured growth for `O=C(CCN1CCCC1)Nc1ccc2c(NCc3ccc(F)cc3)c3ccccc3nc2c1`
Response: -11
